- TESTED_SYSTEM: Gamma-aminobutyric acid receptor subunit alpha-1/alpha-2/beta-2/gamma-2 (Homo sapiens, UniProt P14867+P18507+P47869+P47870); further: assay procedure not described here
- Sequence (P14867 whole entry): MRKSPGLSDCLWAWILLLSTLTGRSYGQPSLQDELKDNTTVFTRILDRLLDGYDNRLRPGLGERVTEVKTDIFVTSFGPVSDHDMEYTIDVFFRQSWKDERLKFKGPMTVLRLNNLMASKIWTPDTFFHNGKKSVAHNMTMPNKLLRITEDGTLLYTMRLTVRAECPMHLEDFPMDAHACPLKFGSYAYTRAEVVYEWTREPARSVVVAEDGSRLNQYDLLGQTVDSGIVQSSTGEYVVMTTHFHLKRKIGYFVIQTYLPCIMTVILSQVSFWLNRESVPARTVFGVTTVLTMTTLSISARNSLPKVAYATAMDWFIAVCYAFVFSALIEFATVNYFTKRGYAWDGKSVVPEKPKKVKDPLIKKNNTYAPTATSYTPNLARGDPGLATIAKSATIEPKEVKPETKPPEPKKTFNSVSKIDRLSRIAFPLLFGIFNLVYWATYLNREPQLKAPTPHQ
- Sequence (P47870 whole entry): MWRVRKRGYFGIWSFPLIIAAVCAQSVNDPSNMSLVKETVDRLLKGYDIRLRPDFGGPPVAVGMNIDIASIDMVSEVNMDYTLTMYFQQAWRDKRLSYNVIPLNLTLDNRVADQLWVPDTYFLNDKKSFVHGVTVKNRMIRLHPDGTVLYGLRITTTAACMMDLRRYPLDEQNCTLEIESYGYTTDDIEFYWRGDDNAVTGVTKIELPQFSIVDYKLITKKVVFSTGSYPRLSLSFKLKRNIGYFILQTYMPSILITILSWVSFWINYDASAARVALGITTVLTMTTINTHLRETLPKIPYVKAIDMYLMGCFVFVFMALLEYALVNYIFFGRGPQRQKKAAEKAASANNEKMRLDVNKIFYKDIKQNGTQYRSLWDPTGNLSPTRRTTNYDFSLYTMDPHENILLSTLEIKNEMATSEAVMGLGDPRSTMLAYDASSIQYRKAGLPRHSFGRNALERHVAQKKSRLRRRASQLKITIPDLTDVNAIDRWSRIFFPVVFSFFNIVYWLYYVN
- Sequence (P18507 whole entry): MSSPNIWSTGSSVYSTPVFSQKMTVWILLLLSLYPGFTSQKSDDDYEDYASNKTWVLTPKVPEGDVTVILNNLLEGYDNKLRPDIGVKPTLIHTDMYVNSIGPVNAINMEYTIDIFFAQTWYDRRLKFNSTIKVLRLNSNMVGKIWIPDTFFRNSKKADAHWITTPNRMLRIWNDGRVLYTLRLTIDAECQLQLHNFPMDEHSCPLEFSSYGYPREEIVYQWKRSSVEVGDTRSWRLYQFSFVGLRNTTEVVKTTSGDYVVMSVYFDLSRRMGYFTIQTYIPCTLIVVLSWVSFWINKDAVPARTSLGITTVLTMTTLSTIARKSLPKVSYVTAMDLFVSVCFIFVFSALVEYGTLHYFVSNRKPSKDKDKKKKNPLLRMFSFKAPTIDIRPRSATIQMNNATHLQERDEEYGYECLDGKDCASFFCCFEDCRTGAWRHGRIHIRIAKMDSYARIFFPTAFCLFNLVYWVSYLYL
- Sequence (P47869 whole entry): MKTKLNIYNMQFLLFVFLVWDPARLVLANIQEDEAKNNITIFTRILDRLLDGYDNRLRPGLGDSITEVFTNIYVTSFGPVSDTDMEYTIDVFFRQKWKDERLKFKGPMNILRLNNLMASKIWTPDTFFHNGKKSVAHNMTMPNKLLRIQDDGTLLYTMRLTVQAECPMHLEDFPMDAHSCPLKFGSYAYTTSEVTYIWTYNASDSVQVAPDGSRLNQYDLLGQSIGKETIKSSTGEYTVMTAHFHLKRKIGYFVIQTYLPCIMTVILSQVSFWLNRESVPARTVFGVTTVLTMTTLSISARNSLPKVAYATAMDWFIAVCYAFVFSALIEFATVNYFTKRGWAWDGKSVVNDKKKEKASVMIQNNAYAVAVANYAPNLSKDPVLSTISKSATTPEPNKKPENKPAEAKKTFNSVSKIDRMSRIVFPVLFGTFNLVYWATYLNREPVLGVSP
- Assay type: protein-complex assay
READOUT_TYPE: AC50

Value lookup for AC50; key = CCCCC(=O)O[C@H]1CC[C@H]2[C@@H]3CCc4cc(O)ccc4[C@H]3CC[C@]12C [ESTRADIOL VALERATE]
> 10 µM

Value lookup for AC50; key = Cc1cnc(C(=O)O)c[n+]1[O-] [ACIPIMOX]
> 30 µM

Value lookup for AC50; key = COCC(=O)O[C@]1(CCN(C)CCCc2nc3ccccc3[nH]2)CCc2cc(F)ccc2[C@@H]1C(C)C [MIBEFRADIL]
> 10 µM

Reference source: ChEMBL document CHEMBL5291721
